# system.name: CYP6Z2 (Anopheles gambiae)
# Sequence (Q7PNB5 1-492): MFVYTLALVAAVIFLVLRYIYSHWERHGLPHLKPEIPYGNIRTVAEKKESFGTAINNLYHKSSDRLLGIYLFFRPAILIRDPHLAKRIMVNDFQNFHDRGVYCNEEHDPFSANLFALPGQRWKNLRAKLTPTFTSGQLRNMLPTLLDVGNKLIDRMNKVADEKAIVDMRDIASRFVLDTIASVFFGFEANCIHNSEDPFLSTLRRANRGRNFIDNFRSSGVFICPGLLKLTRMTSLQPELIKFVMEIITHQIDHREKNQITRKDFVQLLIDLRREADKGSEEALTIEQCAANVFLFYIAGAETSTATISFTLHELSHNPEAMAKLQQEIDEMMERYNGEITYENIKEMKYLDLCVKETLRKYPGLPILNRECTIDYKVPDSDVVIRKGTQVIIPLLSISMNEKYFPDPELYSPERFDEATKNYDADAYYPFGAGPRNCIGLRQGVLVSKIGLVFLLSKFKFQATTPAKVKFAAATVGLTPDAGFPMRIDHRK
# Sequence (Q86QH5 1-679 partner): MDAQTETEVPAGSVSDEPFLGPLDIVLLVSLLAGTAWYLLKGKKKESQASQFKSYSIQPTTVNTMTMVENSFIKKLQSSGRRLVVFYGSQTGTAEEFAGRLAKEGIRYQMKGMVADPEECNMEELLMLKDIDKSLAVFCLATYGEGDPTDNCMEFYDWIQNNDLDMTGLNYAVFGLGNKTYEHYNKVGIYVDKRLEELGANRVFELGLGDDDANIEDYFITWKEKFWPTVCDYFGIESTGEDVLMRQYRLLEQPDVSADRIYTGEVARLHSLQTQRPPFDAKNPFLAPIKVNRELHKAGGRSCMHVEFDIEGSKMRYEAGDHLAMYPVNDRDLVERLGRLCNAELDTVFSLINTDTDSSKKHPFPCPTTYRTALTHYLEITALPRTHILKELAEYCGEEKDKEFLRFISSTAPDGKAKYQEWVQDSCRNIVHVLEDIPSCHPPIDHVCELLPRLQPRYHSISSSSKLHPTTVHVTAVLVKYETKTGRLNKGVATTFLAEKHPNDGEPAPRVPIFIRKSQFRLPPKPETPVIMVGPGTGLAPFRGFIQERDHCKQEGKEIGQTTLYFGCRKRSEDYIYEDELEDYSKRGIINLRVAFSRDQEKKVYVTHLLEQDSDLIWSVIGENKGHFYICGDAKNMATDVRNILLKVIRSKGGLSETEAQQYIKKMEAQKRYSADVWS
# assay.comment: Inhibition screening of pyrethroids, diethoxyfluorescein, CYP6Z2
# Assay type: biochemical
What pIC50 was measured for each of the following?
Conceptually, pIC50 converts a concentration in mol/L into minus its log10.

Entry Cc1c(COC(=O)[C@@H]2[C@H](/C=C(\Cl)C(F)(F)F)C2(C)C)cccc1-c1ccccc1 (racemic) , pIC50 reported as 4.68

Entry CCOc1ccc(C(C)(C)COCc2cccc(Oc3ccccc3)c2)cc1 , pIC50 reported as 5.55

Entry CC1(C)C(C=C(Cl)Cl)C1C(=O)OC(C#N)c1cccc(Oc2ccccc2)c1 (stereo not shown) , pIC50 reported as 5.07

Entry CC1(C)[C@H](C(=O)O[C@H](C#N)c2cccc(Oc3ccccc3)c2)[C@@H]1/C=C(\Cl)C(F)(F)F (racemic) , pIC50 reported as 4.73

====

# Test system: P450 panel (CYP6M2, CYP6P3, CYP6P9a, CYP6P2, CYP9J5, CYP6Z3, CYP6Z2)
# assay.comment: P450 inhibition, whole P450 panel (mean across P450s)
# Type: biochemical, Anopheles gambiae and An. funestus
# protocol.conditions: Anopheles gambiae and Anopheles funestus; mean of the seven P450s of Table S2; read-out: IC50 Mean across P450s
metric: pIC50
Conceptually, pIC50 converts a concentration in mol/L into minus its log10.

# pIC50 measured on P450 panel (CYP6M2, CYP6P3, CYP6P9a, CYP6P2, CYP9J5, CYP6Z3, CYP6Z2) for item CC1(C)[C@H](C(=O)O[C@H](C#N)c2cccc(Oc3ccccc3)c2)[C@@H]1C=C(Br)Br = 5.26

====

# Test system: P450 panel (CYP6M2, CYP6P3, CYP6P9a, CYP6P2, CYP9J5, CYP6Z3, CYP6Z2)
# assay.comment: P450 inhibition, whole P450 panel (mean across P450s)
# Format: biochemical, Anopheles gambiae and An. funestus
# protocol.conditions: Anopheles gambiae and Anopheles funestus, recombinant P450s, probe diethoxyfluorescein; mean of the seven P450s of Table S2; read-out: IC50 Mean across P450s
metric: pIC50
Conceptually, pIC50 converts a concentration in mol/L into minus its log10.

Entry CC1(C)[C@H](C(=O)O[C@H](C#N)c2cccc(Oc3ccccc3)c2)[C@@H]1/C=C(\Cl)C(F)(F)F (racemic) [λ-Cyhalothrin, λ-cyhalothrin] , pIC50 reported as 5.14

Entry CCOc1ccc(C(C)(C)COCc2cccc(Oc3ccccc3)c2)cc1 [Etofenprox, etofenprox] , pIC50 reported as 5.15

Entry Cc1c(COC(=O)[C@@H]2[C@H](/C=C(\Cl)C(F)(F)F)C2(C)C)cccc1-c1ccccc1 (racemic) [Bifenthrin, bifenthrin] , pIC50 reported as 5.01
